testSystem: UniProt:P00573
Sequence (P00573 whole entry): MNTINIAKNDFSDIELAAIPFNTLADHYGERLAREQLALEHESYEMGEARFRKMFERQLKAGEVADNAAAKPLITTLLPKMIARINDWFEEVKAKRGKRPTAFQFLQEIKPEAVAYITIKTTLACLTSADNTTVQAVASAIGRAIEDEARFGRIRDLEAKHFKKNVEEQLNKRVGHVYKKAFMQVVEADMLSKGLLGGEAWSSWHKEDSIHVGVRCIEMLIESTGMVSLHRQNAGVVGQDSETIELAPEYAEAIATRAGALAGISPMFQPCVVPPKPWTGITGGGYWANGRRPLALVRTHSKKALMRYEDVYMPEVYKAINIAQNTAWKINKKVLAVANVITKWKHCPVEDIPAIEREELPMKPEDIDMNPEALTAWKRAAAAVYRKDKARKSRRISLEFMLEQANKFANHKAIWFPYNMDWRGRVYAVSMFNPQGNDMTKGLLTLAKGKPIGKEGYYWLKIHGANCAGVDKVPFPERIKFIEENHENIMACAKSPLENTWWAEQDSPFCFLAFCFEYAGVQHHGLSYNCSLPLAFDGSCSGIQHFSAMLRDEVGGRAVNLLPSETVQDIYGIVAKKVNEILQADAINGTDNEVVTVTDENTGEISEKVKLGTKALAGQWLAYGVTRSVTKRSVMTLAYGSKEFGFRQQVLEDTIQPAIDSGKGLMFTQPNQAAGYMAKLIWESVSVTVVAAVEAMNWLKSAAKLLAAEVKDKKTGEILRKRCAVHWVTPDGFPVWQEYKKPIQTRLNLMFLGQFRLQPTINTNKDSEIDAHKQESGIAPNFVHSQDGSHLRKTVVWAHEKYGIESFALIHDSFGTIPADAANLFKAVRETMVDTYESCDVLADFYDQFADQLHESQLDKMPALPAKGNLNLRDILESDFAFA
Format: biochemical
conditionSet: 20 μL transcription system, Cap1 Analog 4 mM, 37° C. 2 to 3 hours
propertyMeasured: Final product mass obtained from the 20 μL of mRNA transcription system (µg)
Record the value in µg, omitting the unit from your answer.

### Prompt Kindly state the measured Final product mass obtained from the 20 μL of mRNA transcription system obtained for COC[C@H]1[C@@H](O)[C@H](n2c[n+](C)c3c(=O)[nH]c(NC(C)C)nc32)O[C@@H]1COP(=O)(O)OP(=O)(O)OP(=O)(O)OC[C@H]1O[C@@H](n2cnc3c(N)ncnc32)[C@H](OC)[C@@H]1OP(=O)([O-])OC[C@H]1O[C@@H](n2cnc3c(=O)[nH]c(N)nc32)[C@H](O)[C@@H]1O with UniProt:P00573.
### Response 101

### Prompt # value lookup — system UniProt:P00573, readout Final product mass obtained from the 20 μL of mRNA transcription system, item CO[C@@H]1[C@H](OP(=O)(O)OC[C@H]2O[C@@H](n3cnc4c(=O)[nH]c(N)nc43)[C@H](O)[C@@H]2O)[C@@H](COP(=O)(O)OP(=O)(O)OP(=O)(O)OP(=O)(O)OC[C@H]2O[C@@H](n3c[n+](C)c4c(=O)[nH]c(N)nc43)[C@H](O)[C@@H]2CC(=O)N(C)C)O[C@H]1n1cnc2c(N)ncnc21
### Response 114

### Prompt Item: CNC(=O)OC[C@H]1[C@@H](O)[C@H](n2c[n+](C)c3c(=O)[nH]c(N)nc32)O[C@@H]1COP(=O)(O)OP(=O)(O)OP(=O)(O)OC[C@H]1O[C@@H](n2cnc3c(N)ncnc32)[C@H](OC)[C@@H]1OP(=O)([O-])OC[C@H]1O[C@@H](n2cnc3c(=O)[nH]c(N)nc32)[C@H](O)[C@@H]1O Test system: UniProt:P00573 Read-out: Final product mass obtained from the 20 μL of mRNA transcription system Value: ?
### Response 105

Every entry's value here was drawn from patent US12060385B2.
